- Tested on: UACC-62
- test-method-notes: NCI tumour cell line growth inhibition, 48 h
Calls of active or inactive are those of the source. No stated cut-off is given here; in the data, active = GI50 up to about 1.1 µM and inactive = higher.
// one of active, inactive, no free text

Solved cases below.
1) C=CCSC1=N/C(=C\c2ccccc2)C(=O)N1CC=C: inactive
2) Cc1nn2c(nc1=O)sc1ccc3ccccc3c12: inactive
3) COc1ccc(N2C(=O)C3CC(c4ccc(Br)cc4)c4c([nH]c5ccccc45)C3C2=O)cc1 (stereo not given): inactive
4) S=C(Nc1ccccn1)Nc1ccccc1Cl: inactive
5) COc1cc(O)c2c(=O)c(OC)c(-c3ccc4c(c3)OCO4)oc2c1: inactive
6) Oc1ccc(Br)cc1/C=N/c1ccc(Oc2ccc(/N=C/c3cc(Br)ccc3O)cc2)cc1: inactive
7) Cc1ccc2oc3c(c(Br)c(Br)n3C)c(=O)c2c1: inactive
8) CCOC(=O)/C(Br)=C1\OC(=O)c2ccccc2-c2ccccc21: inactive

Hello, I am checking results. What call was entered for Clc1ccccc1-c1nc(-c2ccncc2)no1 [PIFEXOLE] ?
inactive

Hello, I am checking results. What call was entered for CCN(CC)c1ccc(C(=C2C=CC(=[N+](CC)CC)C=C2)c2ccccc2)cc1 ?
active

Hello, I am checking results. What call was entered for CC1CNC(c2ccc(CN3CCC(C4CCN(Cc5ccc(C6=NC(C)CN6)cc5)CC4)CC3)cc2)=N1 (stereo not given) ?
inactive

---

- Test system: HT-29
- test-method-notes: NCI tumour cell line growth inhibition, 48 h
The source made the active and inactive calls. Cut-off read from the data, not from the text of the source: active = GI50 up to about 1.1 µM and inactive = higher.
// one of label 1 for active, label 0 for inactive, no free text

Solved cases below.
1) O=[N+]([O-])c1ccc(N2C[N+](c3ccccc3)=NC(c3ccccc3)=N2)cc1: label 0
2) O=c1c2cc3ccccc3n2c(=O)c2cc3ccccc3n12: label 0
3) c1ccc(CNc2c3c(nc4ccccc24)CCC3)cc1: label 0
4) COc1cc(C/N=c2/nc(N(C)C)ss2)cc(OC)c1OC: label 0
5) CC1=C(/C=C/C(C)=C/C=C/C(C)=C/C(=O)OC2CC(n3cc(F)c(=O)[nH]c3=O)OC2CO)C(C)(C)CCC1 (stereo unspecified): label 0

Here's the next entry for you.
Hello, I am checking results. What call was entered for C=C1COC(O)(C2OCOC(C3CC(=O)NC(=O)C3)C2O)C1C (stereo unspecified) ?
label 1

---

- Test system: NCI-H460
- test-method-notes: NCI tumour cell line growth inhibition, 48 h
Calls of active or inactive are those of the source. Cut-off read from the data, not from the text of the source: active = GI50 up to about 1.1 µM and inactive = higher.
// one of label 1 = active, label 0 = inactive, no free text

Solved cases below.
1. CC(C)(CN1CCCCC1)C(=O)/C=C/c1ccc(/C=C/C(=O)C(C)(C)CN2CCCCC2)cc1: label 1
2. CCN1C(=O)C(=C/C=C/c2ccc(OC)cc2)C(=O)N(CC)C1=S: label 0
3. COc1ccc(-c2nc(N)c(C#N)c3c2CCS(=O)(=O)c2ccc(C)cc2-3)cc1OC: label 0
4. CN(Cc1cnc2nc(N)nc(N)c2n1)c1ccc(C(=O)NC(CCS(=O)(=O)O)C(=O)O)cc1 (configuration not stated): label 1
5. C=CCSC1=N/C(=C\c2ccccc2)C(=O)N1CC=C: label 0

Hello, I am checking results. What call was entered for CCOc1ccc(/N=C/c2ccnc3ccccc23)cc1 ?
label 0

---

- Test system: Hs-578T
- test-method-notes: NCI tumour cell line growth inhibition, 48 h
Calls of active or inactive are those of the source. Cut-off read from the data, not from the text of the source: active = GI50 up to about 1.1 µM and inactive = higher.
// one of active, inactive, no free text

Solved cases below.
1) COc1ccccc1/C=C1\CCC(CN2CCOCC2)C1=O (configuration not stated): inactive
2) O=c1oc2ccccc2cc1-c1nc2ccc([N+](=O)[O-])cc2o1: inactive
3) c1ccc(CNc2c3c(nc4ccccc24)CCC3)cc1: inactive
4) CCc1n[nH]c(=O)n1N1C(=O)C2CC=CCC2C1=O (configuration not stated): inactive
5) CCOC(=O)c1cnc2[nH]ccn2c1=O: inactive
6) O=C1c2[nH]c3ccc(Br)cc3c2CCN1Cc1ccc(Cl)cc1: inactive
7) C=CC(OC(C)=O)c1ccc(OC(C)=O)cc1 (configuration not stated): inactive
8) CC(=O)Oc1ccc(/C=C/C(=O)OCCCOC(=O)/C=C/c2ccc(OC(C)=O)c(OC(C)=O)c2)cc1OC(C)=O: inactive

Hello, I am checking results. What call was entered for O=C(CCCl)NN=C1NCCCCN1 ?
inactive

Hello, I am checking results. What call was entered for O=C1CSC2=NCC3(NN12)c1ccccc1-c1ccccc13 ?
inactive

Hello, I am checking results. What call was entered for CC(C)CCCC(C)[C@H]1CC[C@H]2n3c(nc4ccccc43)CCC[C@]12C (some centres not stated) ?
inactive

Hello, I am checking results. What call was entered for CN(NC1=NCCO1)c1ccc2ccccc2c1 ?
inactive
